# system_name: T1, KIND2 lacking the flexible loop in F1 and the PH domain (ΔKIND2)
# T1 chain: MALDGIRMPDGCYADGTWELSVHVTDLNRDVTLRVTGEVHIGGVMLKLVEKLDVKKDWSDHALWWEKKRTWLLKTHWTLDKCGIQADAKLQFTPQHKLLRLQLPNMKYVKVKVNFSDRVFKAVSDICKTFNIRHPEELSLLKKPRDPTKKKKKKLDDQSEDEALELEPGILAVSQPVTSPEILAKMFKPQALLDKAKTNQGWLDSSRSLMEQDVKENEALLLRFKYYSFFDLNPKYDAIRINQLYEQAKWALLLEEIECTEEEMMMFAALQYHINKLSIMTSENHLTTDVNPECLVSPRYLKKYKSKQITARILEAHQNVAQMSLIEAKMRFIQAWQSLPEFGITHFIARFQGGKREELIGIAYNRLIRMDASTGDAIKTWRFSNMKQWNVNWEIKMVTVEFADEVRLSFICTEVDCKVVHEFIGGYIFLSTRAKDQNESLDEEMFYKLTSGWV
# assay_protocol: MST
pKd: −log10 of the molar value. No end group written: not given here.

binder	pKd
{ATTO 488}-KLLITIHDRKEFAKFEEERARAKWDTANNPLYKEATSTFTNITYRGT (peptide, UniProt O54890 741-787, looked up, integrin β3 cytoplasmic tail; source: synthetic peptide (MPIB Core Facility)) [ATTO 488-labelled β3-CT (488–β3-CT)]	5.17

# credit: paper PMC10716038
